# assay info: Tmax in Sprague-Dawley rat at 1.5 mg/kg, po measured upto 24 hrs by LC-MS/MS analysis
# Assay type: ADME, organism-based
# assay conditions: in vivo
measured quantity: Tmax (min)
Please state the figure in min; there is no need to write the unit.

Q: May I ask what Tmax has been recorded for COc1ccc(/C=C\c2cc(OC)c(OC)c(OC)c2)cc1NC(=O)CCC(=O)N[C@@H](CCCNC(=N)N)C(=O)O ?
Ans: 30

###

# assay system: Mitogen-activated protein kinase kinase kinase 20 (Homo sapiens)
# Sequence (Q9NYL2 whole entry): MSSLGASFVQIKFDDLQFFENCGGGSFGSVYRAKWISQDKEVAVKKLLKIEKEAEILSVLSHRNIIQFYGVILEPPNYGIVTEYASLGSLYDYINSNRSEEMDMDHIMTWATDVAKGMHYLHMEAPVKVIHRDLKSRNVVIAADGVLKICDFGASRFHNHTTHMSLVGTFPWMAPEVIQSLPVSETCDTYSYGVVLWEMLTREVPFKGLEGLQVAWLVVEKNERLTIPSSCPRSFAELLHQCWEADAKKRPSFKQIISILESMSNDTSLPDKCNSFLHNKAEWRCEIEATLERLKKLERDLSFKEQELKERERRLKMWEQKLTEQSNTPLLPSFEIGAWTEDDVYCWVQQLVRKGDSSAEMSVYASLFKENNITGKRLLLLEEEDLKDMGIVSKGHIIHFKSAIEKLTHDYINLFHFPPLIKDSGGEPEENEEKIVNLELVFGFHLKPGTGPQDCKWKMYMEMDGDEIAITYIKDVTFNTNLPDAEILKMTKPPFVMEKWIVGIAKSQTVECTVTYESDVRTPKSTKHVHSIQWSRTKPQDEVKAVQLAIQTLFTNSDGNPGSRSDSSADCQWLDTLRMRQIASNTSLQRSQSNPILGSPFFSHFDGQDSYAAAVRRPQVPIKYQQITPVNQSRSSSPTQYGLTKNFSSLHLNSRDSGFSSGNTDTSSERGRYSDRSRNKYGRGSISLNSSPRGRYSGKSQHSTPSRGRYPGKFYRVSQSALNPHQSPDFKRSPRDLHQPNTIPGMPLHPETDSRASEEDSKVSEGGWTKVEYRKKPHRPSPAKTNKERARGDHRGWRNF
# assay info: Inhibition of ZAK (unknown origin)
measured quantity: IC50

Q: // lookup IC50 for COc1ccc(/C=C\c2cc(OC)c(OC)c(OC)c2)cc1NC(=O)CCC(=O)N[C@@H](CCCNC(=N)N)C(=O)O
Ans: > 10 µM
